EXPERIMENT_NOTES: The drug is tested on Z-024 corresponding to pig gut metagenome with ENA study accession number: PRJEB37062 and ENA sample accession number: ERS12561823 for biotransformation under anaerobic condition. The drug concentrations were measured over 9 timepoints collected between 0 and 24 hours of incubation by liquid-chromatography-coupled mass spectrometry (LC–MS); further: call rule not given here
CONDITION_SET: 2 µM
MEASURED_ATTRIBUTE: Bacterial Biotransformation

molecule=OCCN(CCO)c1nc(N2CCCCC2)c2nc(N(CCO)CCO)nc(N3CCCCC3)c2n1 measured_attribute="Bacterial Biotransformation" result="Compound metabolized"
molecule=CCOC(=O)[C@H](CCc1ccccc1)N[C@@H](C)C(=O)N1Cc2ccccc2C[C@H]1C(=O)O measured_attribute="Bacterial Biotransformation" result="Compound NOT metabolized"
molecule=CC(C)(C)N.CCC[C@H](N[C@@H](C)C(=O)N1[C@H](C(=O)O)C[C@@H]2CCCC[C@@H]21)C(=O)OCC measured_attribute="Bacterial Biotransformation" result="Compound metabolized"
molecule="C#C[C@]1(OC(C)=O)CC[C@H]2[C@@H]3CCC4=CC(=O)CC[C@@H]4[C@H]3CC[C@@]21C [NORETHINDRONE ACETATE]" measured_attribute="Bacterial Biotransformation" result="Compound metabolized"
molecule="COC(=O)C(c1ccccc1)C1CCCCN1 (stereo not drawn) [METHYLPHENIDATE]" measured_attribute="Bacterial Biotransformation" result="Compound metabolized"
molecule="O=C(O)CCC(=O)O.O=C(O[C@H]1CN2CCC1CC2)N1CCc2ccccc2[C@@H]1c1ccccc1 [SOLIFENACIN SUCCINATE]" measured_attribute="Bacterial Biotransformation" result="Compound metabolized"
molecule="CCCN1C[C@H](CSC)C[C@@H]2c3cccc4[nH]cc(c34)C[C@H]21.CS(=O)(=O)O [PERGOLIDE MESYLATE]" measured_attribute="Bacterial Biotransformation" result="Compound NOT metabolized"
molecule="CCN(CC)C(=O)C1(c2ccccc2)CC1CN (stereo not drawn)" measured_attribute="Bacterial Biotransformation" result="Compound NOT metabolized"
